Attribution: patent US7776863B2

Test system: HIV-1 LAI
Experiment: microbe, parasite or virus in culture
Conditions: Compound 1 + named drug, EC50 ratio 2.5:1 (Compound 1:comparator); 95% confidence interval in parentheses
Measured Combination Indices at % HIV Inhibition (Confidence Interval) 50%, listed per entry for reference.
Measured Attribute: Combination Indices at % HIV Inhibition (Confidence Interval) 50%

| Compound Structure | Result |
| --- | --- |
| Nc1ccn([C@@H]2CS[C@H](CO)O2)c(=O)n1 | 0.14 (0.10, 0.17) |
| Cc1cn([C@H]2C=C[C@@H](CO)O2)c(=O)[nH]c1=O | 0.69 (0.51, 0.88) |
| Nc1ccn([C@H]2CC[C@@H](CO)O2)c(=O)n1 | 0.24 (0.22, 0.26) |
| CC(C)Nc1cccnc1N1CCN(C(=O)c2cc3cc(NS(C)(=O)=O)ccc3[nH]2)CC1 | 0.64 (0.49, 0.78) |
| Nc1nc(=O)n([C@@H]2CS[C@H](CO)O2)cc1F | 0.11 (0.09, 0.12) |
| O=C1Nc2ccc(Cl)cc2[C@@](C#CC2CC2)(C(F)(F)F)O1 | 0.52 (0.36, 0.69) |
| CON(Cc1ccc(F)cc1)C(=O)C=C(O)C(=O)O | 0.50 (0.36, 0.63) |
| Nc1nc(NC2CC2)c2ncn([C@H]3C=C[C@@H](CO)C3)c2n1 | 0.10 (0.05, 0.14) |
| CC(C)c1nc(CN(C)C(=O)N[C@H](C(=O)N[C@@H](Cc2ccccc2)C[C@H](O)[C@H](Cc2ccccc2)NC(=O)OCc2cncs2)C(C)C)cs1 | 0.23 (0.20, 0.26) |
| CC(C)(C)NC(=O)[C@@H]1C[C@@H]2CCCC[C@@H]2CN1C[C@@H](O)[C@H](Cc1ccccc1)NC(=O)[C@H](CC(N)=O)NC(=O)c1ccc2ccccc2n1 | 0.39 (0.33, 0.45) |
| CC(C)CN(C[C@@H](O)[C@H](Cc1ccccc1)NC(=O)O[C@H]1CCOC1)S(=O)(=O)c1ccc(N)cc1 | 0.46 (0.32, 0.60) |
| O=c1[nH]cnc2c1ncn2[C@H]1CC[C@@H](CO)O1 | 0.15 (0.11, 0.19) |
| CC(C)(C)NC(=O)[C@@H]1CN(Cc2cccnc2)CCN1C[C@@H](O)C[C@@H](Cc1ccccc1)C(=O)N[C@H]1c2ccccc2C[C@H]1O | 0.05 (0.03, 0.06) |
| COC(=O)N[C@H](C(=O)N[C@@H](Cc1ccccc1)[C@@H](O)CN(Cc1ccc(-c2ccccn2)cc1)NC(=O)[C@@H](NC(=O)OC)C(C)(C)C)C(C)(C)C | 0.34 (0.26, 0.42) |
| Cc1ccnc2c1NC(=O)c1cccnc1N2C1CC1 | 0.58 (0.48, 0.67) |

* * *

Tested on: HIV-1 LAI
Experiment: microbe, parasite or virus in culture
Details: Compound 1 + named drug, all ratios; MT-2 cells, HIV-1 LAI
Measured Attribute: Overall Result (combined anti-HIV effect)

| Compound | Result |
| --- | --- |
| CC(C)(C)NC(=O)[C@@H]1C[C@@H]2CCCC[C@@H]2CN1C[C@@H](O)[C@H](Cc1ccccc1)NC(=O)[C@H](CC(N)=O)NC(=O)c1ccc2ccccc2n1 [Saquinavir, saquinavir] | Synergistic |
| CC(C)CN(C[C@@H](O)[C@H](Cc1ccccc1)NC(=O)O[C@H]1CCOC1)S(=O)(=O)c1ccc(N)cc1 [Amprenavir, amprenavir] | Additive- |
| Nc1nc(NC2CC2)c2ncn([C@H]3C=C[C@@H](CO)C3)c2n1 [Abacavir, abacavir] | Additive- |
| CC(C)Nc1cccnc1N1CCN(C(=O)c2cc3cc(NS(C)(=O)=O)ccc3[nH]2)CC1 [Delavirdine, delavirdine] | Synergistic |
| COC(=O)N[C@H](C(=O)N[C@@H](Cc1ccccc1)[C@@H](O)CN(Cc1ccc(-c2ccccn2)cc1)NC(=O)[C@@H](NC(=O)OC)C(C)(C)C)C(C)(C)C [Atazanavir, atazanavir] | Additive- |
| Nc1ccn([C@H]2CC[C@@H](CO)O2)c(=O)n1 [Zalcitabine, zalcitabine] | Synergistic |
| Cc1ccnc2c1NC(=O)c1cccnc1N2C1CC1 [Nevirapine, nevirapine] | Additive- |
| Nc1nc(=O)n([C@@H]2CS[C@H](CO)O2)cc1F [Emtricitabine, emtricitabine] | Synergistic |
| O=c1[nH]cnc2c1ncn2[C@H]1CC[C@@H](CO)O1 [Didanosine, didanosine] | Synergistic |
| Cc1c(O)cccc1C(=O)N[C@@H](CSc1ccccc1)[C@H](O)CN1C[C@H]2CCCC[C@H]2C[C@H]1C(=O)NC(C)(C)C [Nelfinavir, nelfinavir] | Additive- |
| O=C1Nc2ccc(Cl)cc2[C@@](C#CC2CC2)(C(F)(F)F)O1 [Efavirenz, efavirenz] | Synergistic |
| Cc1cn([C@H]2C[C@H](N=[N+]=[N-])[C@@H](CO)O2)c(=O)[nH]c1=O [Zidovudine, zidovudine] | Additive- |
| Cc1cccc(C)c1OCC(=O)N[C@@H](Cc1ccccc1)[C@@H](O)C[C@H](Cc1ccccc1)NC(=O)[C@H](C(C)C)N1CCCNC1=O [Lopinavir, lopinavir] | Additive- |
| CC(C)c1nc(CN(C)C(=O)N[C@H](C(=O)N[C@@H](Cc2ccccc2)C[C@H](O)[C@H](Cc2ccccc2)NC(=O)OCc2cncs2)C(C)C)cs1 [Ritonavir, ritonavir] | Synergistic |
| CC(C)(C)NC(=O)[C@@H]1CN(Cc2cccnc2)CCN1C[C@@H](O)C[C@@H](Cc1ccccc1)C(=O)N[C@H]1c2ccccc2C[C@H]1O [Indinavir, indinavir] | Additive- |
